# experimental-system: Muscle, skeletal receptor tyrosine-protein kinase (Homo sapiens);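 further: reported value is the mean percent inhibition of MuSK kinase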
# Sequence (whole entry): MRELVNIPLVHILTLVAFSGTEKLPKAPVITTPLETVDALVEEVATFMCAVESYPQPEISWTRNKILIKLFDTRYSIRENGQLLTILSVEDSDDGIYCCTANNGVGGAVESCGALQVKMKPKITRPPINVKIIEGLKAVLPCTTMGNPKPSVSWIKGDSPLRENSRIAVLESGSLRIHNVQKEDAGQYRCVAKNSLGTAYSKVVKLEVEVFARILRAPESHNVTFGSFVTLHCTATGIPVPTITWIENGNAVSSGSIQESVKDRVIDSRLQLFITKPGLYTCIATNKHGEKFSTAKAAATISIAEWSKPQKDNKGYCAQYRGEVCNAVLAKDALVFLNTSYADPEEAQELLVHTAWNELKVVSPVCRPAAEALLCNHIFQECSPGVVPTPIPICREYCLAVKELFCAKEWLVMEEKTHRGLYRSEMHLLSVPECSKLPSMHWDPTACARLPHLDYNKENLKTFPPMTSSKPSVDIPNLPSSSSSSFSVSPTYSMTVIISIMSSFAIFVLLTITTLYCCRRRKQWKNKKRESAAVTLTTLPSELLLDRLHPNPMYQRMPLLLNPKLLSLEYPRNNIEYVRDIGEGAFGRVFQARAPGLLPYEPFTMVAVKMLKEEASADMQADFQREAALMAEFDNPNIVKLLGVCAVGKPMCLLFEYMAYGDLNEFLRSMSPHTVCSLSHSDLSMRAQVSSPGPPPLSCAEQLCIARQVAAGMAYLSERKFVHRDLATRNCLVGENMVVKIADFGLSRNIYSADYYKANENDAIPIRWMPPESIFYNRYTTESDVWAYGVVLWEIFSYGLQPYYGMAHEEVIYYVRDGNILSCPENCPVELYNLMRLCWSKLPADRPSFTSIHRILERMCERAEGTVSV
# condition-info: at 1 µM
Some compounds, each annotated with its measured inhibition.
Could you give me the number in %? Just the number is fine.

compound=CCCN1CCC(Oc2cc(Nc3nc(Nc4cccc(F)c4C(N)=O)c4cc[nH]c4n3)c(OC)cc2Cl)CC1 reported_endpoint=inhibition assay_value=8.65

Query :: Param item = CC(=O)Nc1cccc(C#Cc2cncnc2Nc2ccc(OCc3cccc(F)c3)c(Cl)c2)n1 ; retrieve measured inhibition.
Result :: 2.93

Query :: Could you tell me which inhibition is on file for CC1=C(C(=O)Nc2ccc3[nH]ncc3c2)C(c2ccc3ccccc3c2)CC(=O)N1 (stereo not drawn) ?
Result :: 5.45

Query :: Which value of inhibition has been reported for CCc1cccc(NC(=O)Nc2ccc(Oc3ccc4nc(NC(=O)OC)[nH]c4c3)cc2)c1 in the records?
Result :: 31.1

Query :: inhibition for COC(=O)Nc1nc2cc(Oc3cccc(NC(=O)Nc4cc(C(F)(F)F)ccc4F)c3)ccc2[nH]1 ?
Result :: 32.3

Query :: Bench note: what inhibition did NS(=O)(=O)c1ccc(N/N=C2\C(=O)Nc3ccc(C(=O)NCCc4c[nH]cn4)cc32)cc1 show?
Result :: 43.1

Query :: Find the recorded inhibition belonging to COC(=O)Nc1nc2cc(Oc3ccc(NC(=O)Nc4cccc(C(=O)O)c4)cc3)ccc2[nH]1 and report it.
Result :: 2.82

Query :: # inhibition lookup, item Nc1ncnc2occ(-c3ccc(NC(=O)Nc4cccc(C(F)(F)F)c4)cc3)c12
Result :: 90.2
